experiment: Intrinsic clearance in human liver microsomes; assay type: ADME; conditions: read-out: CLH
Assay metric: CLint scaled (mL/min/kg)

Examples with answers:
>>> df
                                   compound  readout_units  experimental_result
0  CN1Cc2c(nn(Cc3ccc(-c4ccccn4)cc3)c2Nc2ccccc2)N2C1=N[C@@H]1CCC[C@@H]12      mL/min/kg                   59
1  CN1C(=O)c2c(nn(Cc3ccc(-c4cccc(F)n4)cc3)c2Sc2ccccc2)N2C1=N[C@@H]1CCC[C@@H]12      mL/min/kg                  208

[I] CN1Cc2c(nn(Cc3ccc(C(F)(F)F)cc3)c2Nc2ccccc2)N2C1=N[C@@H]1CCC[C@@H]12
[II] O=C1NC2=N[C@@H]3CCC[C@@H]3N2c2nn(Cc3ccc(C(F)(F)F)cc3)c(Nc3ccccc3)c21
[III] CN1C(=O)c2c(nn(Cc3ccc(-c4cccc(F)n4)cc3)c2Oc2ccccc2)N2C1=N[C@@H]1CCC[C@@H]12
[IV] CN1C(=O)c2c(nn(Cc3ccc(C(F)(F)F)cc3)c2Nc2ccccc2)N2C1=N[C@@H]1CCC[C@@H]12
[V] CN1C(=N)c2c(nn(Cc3ccc(C(F)(F)F)cc3)c2Nc2ccccc2)N2C1=N[C@@H]1CCC[C@@H]12
# ascending order, key=CLint scaled List labels; respect the requested ordering. II, V, I, IV, III
(II: 22 mL/min/kg, V: 32 mL/min/kg, I: 64 mL/min/kg, IV: 139 mL/min/kg, III: 214 mL/min/kg)

[a] CN1C(=O)c2c(nn(Cc3ccc(-c4cccc(F)n4)cc3)c2Cc2ccc(F)cc2)N2C1=N[C@@H]1CCC[C@@H]12
[b] CN1C(=O)c2c(nn(Cc3ccc(-c4ncccc4F)cc3)c2Nc2ccccc2)N2C1=N[C@@H]1CCC[C@@H]12
[c] CN1C(=O)c2c(nn(Cc3ccc(-c4ccccn4)cc3)c2Nc2ccccc2)N2C1=N[C@@H]1CCC[C@@H]12
# sort list by recorded CLint scaled, greatest to least List labels; respect the requested ordering. b, c, a
(b: 276 mL/min/kg, c: 189 mL/min/kg, a: 81 mL/min/kg)

[A] CN1C(=O)c2c(nn(Cc3ccc(C(F)(F)F)cc3)c2Nc2ccc(F)cc2)N2C1=N[C@@H]1CCC[C@@H]12
[B] CN1C(=O)c2c(nn(Cc3ccc(-c4cccc(F)n4)cc3)c2Nc2ccccc2)N2C1=N[C@H]1CCC[C@H]12
Of the pair A and B , name the member with the lesser recorded CLint scaled. Write down the label of the entry you select. B

* * *

experiment: Cmax in C57BL/6 mouse plasma at 10 mg/kg administered through oral gavage; assay type: ADME, organism-based; design: dose 10 mg/kg, route oral
Assay metric: Cmax (ng/mL)

Examples with answers:
>>> print(df.to_string())
                                   compound  experimental_result
0  CN1C(=O)c2c(nn(Cc3ccc(S(N)(=O)=O)cc3)c2Nc2ccccc2)N2C1=N[C@@H]1CCC[C@@H]12                  650
1  CN1C(=O)c2c(nn(Cc3ccc(-c4ccccc4)cc3)c2Nc2ccccc2)N2C1=N[C@@H]1CCC[C@@H]12                  130
2  CN1C(=O)c2c(nn(Cc3ccc(-c4cccc(F)n4)cc3)c2Cc2ccccc2)N2C1=N[C@@H]1CCC[C@@H]12                   86
3  CN1C(=O)c2c(nn(Cc3ccc(-c4cccc(F)n4)cc3)c2Oc2ccccc2)N2C1=N[C@@H]1CCC[C@@H]12                  165
4  CN1C(=O)c2c(nn(Cc3ccc(-c4cccc(F)n4)cc3)c2Nc2ccccc2)N2C1=N[C@@H]1CCC[C@@H]12.O=P(O)(O)O [LENRISPODUN PHOSPHATE]                  490

[P] CN1C(=O)c2c(nn(Cc3ccc(C(F)(F)F)cc3)c2Nc2ccc(F)cc2)N2C1=N[C@@H]1CCC[C@@H]12
[Q] CN1C(=O)c2c(nn(Cc3ccc(-c4cccc(F)n4)cc3)c2Cc2ccc(F)cc2)N2C1=N[C@@H]1CCC[C@@H]12
[R] CN1C(=O)c2c(nn(Cc3ccc(-c4cccc(F)n4)cc3)c2Sc2ccccc2)N2C1=N[C@@H]1CCC[C@@H]12
# sort list by recorded Cmax, greatest to least List labels; respect the requested ordering. R, Q, P
(R: 93 ng/mL, Q: 44 ng/mL, P: 21 ng/mL)
